target: Estrogen receptor (Homo sapiens); experiment: qHTS assay to identify small molecule agonists of the estrogen receptor alpha (ER-alpha) signaling pathway using the BG1 cell line (AID 743079); settings: BG1Luc4E2 cells, ERE-luciferase agonist, 22 h; series mostly up to 70.3 µM; further: nearly all actives have a fitted effect of over 20% in size; on activation: on the % scale 0 is the no-effect control and ±100 the full control effect
Inconclusive results are not listed. Calls of active or inactive are those of the source. The call rests on the fitted dose curve; in most records, active means well fitted activation curve with a large enough effect in the repeat runs; inconclusive means weak or mixed curves, or effect the other way; inactive means no such curve, though single readings can be large or run the other way.
Just give me one of these, please: active, inactive

Example results:
{"columns": ["COMPOUND", "CLASS_LABEL"],
 "data": [
  ["CC(=O)NC[C@H]1CN(c2ccc(N3CCOCC3)c(F)c2)C(=O)O1", "active"],
  ["Nc1nc(/C(=C/CC(=O)O)C(=O)N[C@@H]2C(=O)N3C(C(=O)O)=CCS[C@H]23)cs1", "inactive"],
  ["CCN(CC)CCOC[C@H]1O[C@@H](O)[C@H](OCCN(CC)CC)[C@@H](O)[C@@H]1O", "inactive"],
  ["CC(C)c1ccc2sc3ccccc3c(=O)c2c1", "active"],
  ["Cc1cn([C@H]2C[C@H](O)[C@@H](CO)O2)c(=O)[nH]c1=O", "inactive"],
  ["CC(C)OC(=O)Nc1ccc2nc(-c3cscn3)[nH]c2c1", "active"],
  ["N=C(N)n1cccn1", "inactive"],
  ["CN[C@H](CC(C)C)C(=O)N[C@H]1C(=O)N[C@@H](CC(N)=O)C(=O)N[C@H]2C(=O)N[C@H]3C(=O)N[C@H](C(=O)N[C@@H](C(=O)O)c4cc(O)cc(O)c4-c4cc3ccc4O)[C@H](O)c3ccc(c(Cl)c3)Oc3cc2cc(c3O[C@@H]2O[C@H](CO)[C@@H](O)[C@H](O)[C@H]2O[C@H]2C[C@](C)(N)C(O)[C@H](C)O2)Oc2ccc(cc2Cl)[C@H]1O (some centres not stated)", "inactive"]
]}

For C[C@@H]1C[C@H]2[C@@H]3C[C@H](F)C4=CC(=O)C=C[C@]4(C)[C@@]3(Cl)[C@@H](O)C[C@]2(C)[C@H]1C(=O)COC(=O)C(C)(C)C , which call appears in the assay record?
inactive

For C[N+](C)(C)CCOP(=O)(O)OP(=O)([O-])OC[C@H]1O[C@@H](n2ccc(N)nc2=O)[C@H](O)[C@@H]1O , which call appears in the assay record?
inactive

For c1ccc2occc2c1 , which call appears in the assay record?
inactive

* * *

molecular target: Nuclear receptor subfamily 1 group I member 2 (Rattus norvegicus); test: Rat pregnane X receptor (rPXR) activation by small molecules, qHTS assay (AID 1346983); settings: rPXR luciferase reporter cells, One-Glo luminescence, 24 h; hits give high values; further: on the % scale 0 is the no-effect control and ±100 the full control effect; nearly all actives have a fitted effect of over 20% in size
Results filed as inconclusive are left out.
MEASUREMENT_NAME: max activation (%)
Answers are plain numbers, in %.

{"columns": ["MOLECULE", "max activation / %"],
 "data": [
  ["C=CC[N@@+]12CC[C@@]34c5ccccc5N5/C=C6/[C@H]7C[C@H]8[C@@]9(CC[N@@+]8(CC=C)C/C7=C/CO)c7ccccc7N(/C=C(/[C@@H](C[C@@H]31)/C(=C\\CO)C2)[C@H]54)[C@@H]69", 3.06]
]}

List max activation for every entry below, keeping the order given.
1. CCCCCCCCCCCCCCCCCCOCC(COP(=O)([O-])OCC[N+](C)(C)C)OC (centres undefined)
2. CC1(C)CCC(NC(=O)[C@@H](N)CCC(=O)O)CC1
3. Nc1nc(/C(=C/CC(=O)O)C(=O)N[C@@H]2C(=O)N3C(C(=O)O)=CCS[C@H]23)cs1
4. CCOc1ccc(S(=O)(=O)O)c2cccnc12
5. CCc1cn([C@H]2C[C@H](O)[C@@H](CO)O2)c(=O)[nH]c1=O
6. C[C@]12O[C@H](C[C@]1(O)CO)n1c3ccccc3c3c4c(c5c6ccccc6n2c5c31)CNC4=O
7. CCC(NC(C)C)C(O)c1ccc(O)c(O)c1 (centres undefined)
8. CN1[C@@H](CC(=O)c2ccccc2)CCC[C@H]1C[C@H](O)c1ccccc1

1: -1.53; 2: -2.85; 3: -1.46; 4: -0.221; 5: 1.52; 6: -24.6; 7: -0.219; 8: 4.75

* * *

For each record, write down the corresponding activity change, negative = cytotoxicity.
assay: qHTS assay to identify small molecule agonists of the hypoxia (HIF-1) signaling pathway - cell viability counter screen (AID 1224844); conditions: HRE-bla ME-180 viability, CellTiter-Glo luminescence, 17 h; series mostly up to 76.8 µM; further: on the % scale 0 is the no-effect control and ±100 the full control effect; nearly all actives have a fitted effect of over 50% in size
Records with an inconclusive call do not appear. Activity calls are given as the source filed them. Calls come from the whole dose curve.

List activity change, negative = cytotoxicity for every entry below, keeping the order given.
1. O=C(O)CN(CCCN(CC(=O)O)CC(=O)O)CC(=O)O
2. COc1cc2ncnc(Nc3cccc(Cl)c3)c2cc1OC
3. O=C(O)C[C@H](O)C[C@H](O)/C=C/c1c(C2CC2)nc2ccccc2c1-c1ccc(F)cc1

-18% [at 15.8 µM] (inactive)
-10.3% [at 15.8 µM] (inactive)
-17.5% [at 15.8 µM] (inactive)

Item C=CC(=O)OCCOC1C2CCC1C1CC=CC12 (centres undefined) : provide activity change, negative = cytotoxicity
4.59% [at 15.8 µM] (inactive)

* * *

Molecular target: Androgen receptor (Homo sapiens) (UniProt P10275)
Sequence (P10275 whole entry, looked up): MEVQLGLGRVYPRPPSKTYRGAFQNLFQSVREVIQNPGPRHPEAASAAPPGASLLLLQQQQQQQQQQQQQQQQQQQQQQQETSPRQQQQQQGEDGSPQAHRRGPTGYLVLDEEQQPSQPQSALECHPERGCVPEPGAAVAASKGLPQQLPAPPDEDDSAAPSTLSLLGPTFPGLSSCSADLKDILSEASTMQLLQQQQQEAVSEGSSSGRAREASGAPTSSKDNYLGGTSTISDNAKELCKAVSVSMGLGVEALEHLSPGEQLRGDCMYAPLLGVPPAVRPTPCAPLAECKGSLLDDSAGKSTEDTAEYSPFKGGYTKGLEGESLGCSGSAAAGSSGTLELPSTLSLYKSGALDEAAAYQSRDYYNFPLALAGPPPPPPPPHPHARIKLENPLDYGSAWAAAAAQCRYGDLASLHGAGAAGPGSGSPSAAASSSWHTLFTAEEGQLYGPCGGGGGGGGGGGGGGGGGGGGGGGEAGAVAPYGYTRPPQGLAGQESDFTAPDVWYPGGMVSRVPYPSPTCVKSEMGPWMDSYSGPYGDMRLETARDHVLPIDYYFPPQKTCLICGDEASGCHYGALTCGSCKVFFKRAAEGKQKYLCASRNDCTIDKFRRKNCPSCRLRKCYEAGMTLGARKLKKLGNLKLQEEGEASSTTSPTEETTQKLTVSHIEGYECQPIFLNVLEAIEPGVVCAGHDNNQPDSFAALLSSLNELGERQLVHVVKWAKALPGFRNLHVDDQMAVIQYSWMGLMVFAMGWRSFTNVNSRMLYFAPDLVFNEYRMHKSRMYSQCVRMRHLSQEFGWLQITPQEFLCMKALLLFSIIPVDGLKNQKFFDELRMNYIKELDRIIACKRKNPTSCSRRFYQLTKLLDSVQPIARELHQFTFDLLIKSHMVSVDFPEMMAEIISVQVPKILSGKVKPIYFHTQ
Assay: qHTS assay to identify small molecule antagonists of the androgen receptor (AR) signaling pathway using the MDA cell line (AID 743042; further: nearly all actives have a fitted effect of over 55% in size)
Conditions: MDA-kb2 AR-luc, MMTV luciferase, R1881 antagonist, 16 h; series mostly up to 70.3 µM
From the text: U.S. Tox21 Program National Center for Advancing Translational Sciences [NCATS] NIH Chemical Genomics Center [NCGC] U.S. Environmental Protection Agency [EPA] National Institutes of Environmental Health Sciences [NIEHS] National Toxicology Program [NTP] U.S. Food and Drug Administration [FDA] Tox21 Assay Overview: Androgen receptor (AR), a nuclear hormone receptor, plays a critical role in AR-dependent prostate cancer and other androgen related diseases. […]
Results filed as inconclusive are left out. The source made the active and inactive calls. The call rests on the fitted dose curve; in most records, active means well fitted inhibition curve with a large enough effect in the repeat runs; inconclusive means weak or mixed curves, or effect the other way; inactive means no such curve, though single readings can be large or run the other way.
Just give me one of these, please: yes for active, no for inactive

{"columns": ["ENTRY_SMILES", "SYSTEM", "CLASS_LABEL"],
 "data": [
  ["C[C@@H]1O[C@@H]1P(=O)(O)O", "Androgen receptor (Homo sapiens) (UniProt P10275)", "no"]
]}

For COc1cccc2c1[C@@H]1CN(CCCCn3c(=O)[nH]c4c(sc5ncc(-c6ccccc6)nc54)c3=O)C[C@@H]1CO2 , which call appears in the assay record?
yes

For CCCCCCCCCCCCCCCCCCNC(=O)OC1CCN(C(=O)OC[C@H](COC(=O)N(Cc2cccc[n+]2CC)C(=O)c2ccccc2OC)OC)CC1 , which call appears in the assay record?
yes

For Cc1cc(=O)c(C(=O)N[C@@H](C(=O)N[C@@H]2C(=O)N3C(C(=O)O)=C(CSc4nnnn4C)CS[C@H]23)c2ccc(O)cc2)c[nH]1 , which call appears in the assay record?
no

* * *

test: qHTS assay to identify small molecule antagonists of the thyroid receptor (TR) signaling pathway (AID 743065); settings: GH3.TRE-Luc, T3-stimulated luciferase inhibition, 23.5 h; series mostly up to 70.3 µM; further: nearly all actives have a fitted effect of over 55% in size
Results filed as inconclusive are left out. Activity calls are given as the source filed them. Calls follow the shape of the dose curve; as a rule, active = well fitted inhibition curve with a large enough effect in the repeat runs; inconclusive = weak or mixed curves; inactive = no such curve, though single readings can be large or run the other way.
Just give me one of these, please: yes (1) (active), no (0) (inactive)

Example results:
{"columns": ["ENTRY_SMILES", "CLASS_LABEL"],
 "data": [
  ["O=C(O)[C@H]1CN(C/C=C/P(=O)(O)O)CCN1", "no (0)"],
  ["CCOc1ccc(NC(=S)Nc2ccc(OCC)cc2)cc1", "no (0)"],
  ["O=C1c2ccccc2-c2n[nH]c3cccc1c23", "yes (1)"],
  ["CN[C@@H]1[C@@H](O[C@H]2O[C@H](CO)[C@@H](N)[C@H](O)[C@H]2O)O[C@H]2C[C@@H](N)[C@@H](O[C@H]3[C@H](O)[C@@H](O)[C@H](N)C[C@@H]3N)O[C@@H]2[C@@H]1O", "no (0)"]
]}

Let's switch to this compound now.
For CC/C(=C(/CC)c1ccc(OP(=O)(O)O)cc1)c1ccc(OP(=O)(O)O)cc1 , which call appears in the assay record?
no (0)

* * *

assay: qHTS assay to identify small molecule antagonists of the androgen receptor (AR) signaling pathway - cell viability counter screen (AID 743033; further: on the % scale 0 is the no-effect control and ±100 the full control effect; nearly all actives have a fitted effect of over 45% in size); conditions: AR-bla HEK293 viability, CellTiter-Glo luminescence, 16 h; series mostly up to 58.5 µM
Records with an inconclusive call do not appear. Calls of active or inactive are those of the source. The call rests on the fitted dose curve; in most records, active means well fitted cell-killing curve with a large enough effect in the repeat runs; inconclusive means weak or mixed curves; inactive means no such curve, though single readings can be large or run the other way.
Just give me one of these, please: label 1 = active, label 0 = inactive

Example results:
{"columns": ["COMPOUND", "CLASS_LABEL"],
 "data": [
  ["CCOC(=O)[C@H](CCc1ccccc1)N[C@@H](C)C(=O)N1[C@H](C(=O)O)C[C@H]2CCCC[C@@H]21", "label 0"],
  ["CNC(=O)C[C@@H](N)C(=O)N[C@@H](C(=O)N[C@@H]1C(=O)N2[C@@H]1SC(C)(C)[C@@H]2C(=O)O)c1ccc(O)cc1", "label 0"],
  ["CCCCC[C@H](O)/C=C/[C@@H]1[C@@H](C/C=C\\CCCC(=O)O)[C@@H](O)C[C@H]1O", "label 0"],
  ["CC(C)=CCC/C(C)=C/CC/C(C)=C/CC/C=C(\\C)CC/C=C(\\C)CCC=C(C)C", "label 0"],
  ["CC(=O)OCC1=C(C(=O)O)N2C(=O)[C@@H](NC(=O)Cc3ccccc3)[C@H]2SC1", "label 0"]
]}

Let's switch to this compound now.
For FC(F)(F)COCC(F)(F)F , which call appears in the assay record?
label 0
